Where these numbers come from: ChEMBL document CHEMBL1152136

# assay.protocol: Metabolic stability in human HCT116 cells assessed as half life at 5 uM in presence of 10% FBS
# Format: ADME, cell-based, HCT-116
measured.quantity: half-life at 5 µM (h)
Express it in h; write the number only.

Return the recorded half-life at 5 µM value; entry: CS(=O)(=O)Cc1noc(-c2ccc(C(=O)C(F)(F)F)s2)n1
13

Return the recorded half-life at 5 µM value; entry: O=C(c1ccc(-c2nc(CS(=O)(=O)c3cccs3)no2)s1)C(F)(F)F
6

Return the recorded half-life at 5 µM value; entry: CCCS(=O)(=O)Cc1noc(-c2ccc(C(=O)C(F)(F)F)s2)n1
12

Return the recorded half-life at 5 µM value; entry: O=C(c1ccc(-c2nc(CS(=O)(=O)Cc3ccc(F)cc3)no2)s1)C(F)(F)F
5.5
